Measured MIC, listed per entry for reference.
Test system: Klebsiella pneumoniae
Assay: Antimicrobial activity against Klebsiella pneumoniae ATCC BAA-1904 by broth microdilution method
Type: functional
Positions of bridges follow the written chain, without caps; N, C: chain ends. Non-standard residues stand in square brackets, D forms with d. Residues, ends and D or L forms follow the SMILES beside them. *: point of attachment. X1 = CC[C@H](C)CCCCC(=O)*; Dab = NCC[C@H](N)C(=O)O
Response body: numeric value in µg/mL, unit text excluded.

MOLECULE: C[C@H](NC(=O)[C@@H](NC(=O)[C@@H](N)CCCCN)[C@@H](O)CN)C(=O)NCC(=O)N[C@H](CCCN)C(=O)N1CCC[C@H]1C(=O)N[C@@H](Cc1cnc[nH]1)C(=O)N[C@@H](CCCCN)C(=O)N/C(=C\CCNC(=N)N)C(=O)O
MIC, µg/mL: 4

(Q) Please report the recorded MIC for CC[C@H](C)CCCCC(=O)N[C@@H](CCN)C(=O)N[C@H](C(=O)N[C@@H](CCN)C(=O)N[C@H]1CCNC(=O)[C@H]([C@@H](C)O)NC(=O)[C@H](CCN)NC(=O)[C@H](CCN)NC(=O)[C@H](CC(C)C)NC(=O)[C@@H](Cc2ccccc2)NC(=O)[C@H](CCN)NC1=O)[C@@H](C)O (X1-[Dab]T[Dab][Dab][Dab][dF]L[Dab][Dab]T; lactam 4-C) .
(A) 0.5

Values from ChEMBL document CHEMBL4145683
